Hi there, I'd appreciate the recorded kon for every entry that follows.
target: T1, Human PDGF-BB (human, UniProt P01127 82-190); assay: SPR (Biacore), antibody captured via anti-human Fc, antigen in solution
T1 construct: Recombinant human PDGF-BB, a homodimer of two B chains; also called hPDGF-BB; huPDGF-BB
T1 sequence (P01127 82-190 limits assumed): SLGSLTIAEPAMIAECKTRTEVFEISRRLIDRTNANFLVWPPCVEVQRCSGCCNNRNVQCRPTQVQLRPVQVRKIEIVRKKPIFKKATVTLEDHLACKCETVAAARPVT

Consider hBDI-9E8.1 (antibody, V domains shown, Humanized IgG) VH: EVTLRESGPALVKPTQTLTLTCTFSGFSLSTYGMGVGWIRQPPGKALEWLANIWWDDDKYYNPSLKNRLTISKDTSKNQVVLTMTNMDPVDTATYYCARIESIGTTYSFDYWGQGTMVTVSS VL: NFMLTQPHSVSESPGKTVTISCERSSGDIGDSYVSWYQQRPGSSPTTVIYADDQRPSGVPDRFSGSIDSSSNSASLTISGLKTEDEADYYCQSYDINIDIVFGGGTKLTVL . Its measured kon is ≥ 1e+07 M⁻¹ s⁻¹

Consider hBDI-9E8.2 (antibody, V domains shown, Humanized IgG) VH: EVTLRESGPALVKPTQTLTLTCTFSGFSLSTYGMGVGWIRQPPGKALEWLANIWWDDDKYYNPSLKNRLTISKDTSKNQVVLTMTNMDPVDTATYYCARIESIGTTYSFDYWGQGTMVTVSS VL: NFMLTQPHSVSESPGKTVTISCERSSGDIGDSYVSWYQQRPGSPPTNVIYADDQRPSGVPDRFSGSIDSSSNSASLTISGLKTEDEADYFCQSYDINIDIVFGGGTKLTVL . Its measured kon is ≥ 1e+07 M⁻¹ s⁻¹

Consider hBDI-5H1.5 (antibody, V domains shown, Humanized IgG) VH: EVTLKESGPALVKPTQTLTLTCTFSGFSLSTFGMGVGWIRQPPGKALEWLANIWWDDDKYYNPSLKNRLTISKDTSKNQAVLTITNMDPVDTATYYCARISTGISSYYVMDAWGQGTTVTVSS VL: NFMLTQPHSVSESPGKTVTISCERSSGDIGDTYVSWYQQRPGSSPTTVIYGNDQRPSGVPDRFSGSIDSSSNSASLTISGLKTEDEADYYCQSYDSDIDIVFGGGTKLTVL . Its measured kon is ≥ 1e+07 M⁻¹ s⁻¹

Consider hBDI-9E8.7 (antibody, V domains shown, Humanized IgG) VH: EVTLRESGPALVKPTQTLTLTCTFSGFSLSTYGMGVGWIRQPPGKGLEWLANIWWDDDKYYNPSLKNRLTISKDTSKNQAVLTITNMDPVDTATYYCARIESIGTTYSFDYWGQGTMVTVSS VL: EIVLTQSPGTLSLSPGERATLSCERSSGDIGDSYVSWYQQKPGQAPRLLIYADDQRPSGIPDRFSGSGSGTDFTLTISRLEPEDFAVYYCQSYDINIDIVFGGGTKVEIK . Its measured kon is ≥ 1e+07 M⁻¹ s⁻¹

Consider hBDI-5H1.11 (antibody, V domains shown, Humanized IgG) VH: EVQLVESGGGLVQPGGSLRLSCAFSGFSLSTFGMGVGWIRQAPGKGLEWLANIWWDDDKYYNPSLKNRLTISKDTSKNQAYLQINSLRAEDTAVYYCARISTGISSYYVMDAWGQGTLVTVSS VL: DFVLTQSPDSLAVSLGERATINCERSSGDIGDTYVSWYQQKPGQPPKNVIYGNDQRPSGVPDRFSGSGSGNSATLTISSLQAEDVAVYFCQSYDSDIDIVFGGGTKVEIK . Its measured kon is ≥ 1e+07 M⁻¹ s⁻¹
